- method.notes: Highest frequency of acute liver toxicity observed during clinical trials, expressed as a percentage. [column '% AIGUE' in source]
- condition.label: human
assay.endpoint: Hepatotoxicity (acute) (%)
Answer format: numeric, % implied, no suffix.

Notebook: "CC(C)CN(C[C@@H](O)[C@H](Cc1ccccc1)NC(=O)O[C@H]1CCOC1)S(=O)(=O)c1ccc(N)cc1" , Hepatotoxicity (acute) read as 10.7

Notebook: CCC1NC(=O)c2cc(S(N)(=O)=O)c(Cl)cc2N1 (stereo not given) , Hepatotoxicity (acute) read as 0

Notebook: "CNC=O" , Hepatotoxicity (acute) read as 0

Notebook: "Clc1ccc2c(c1)C(N1CCNCC1)=Nc1ccccc1O2" , Hepatotoxicity (acute) read as 0

Notebook: "CCOC(=O)C1=C[C@@H](OC(CC)CC)[C@H](NC(C)=O)[C@@H](N)C1" , Hepatotoxicity (acute) read as 0

Notebook: O=C(CCCN1CCN(c2ccc(F)cc2)CC1)NC1c2ccccc2CSc2ccccc21 (stereo not given) [MONATEPIL] , Hepatotoxicity (acute) read as 0

Notebook: CN(C)C(=O)CCCOC(=O)C(C)(C)Oc1ccc(Cl)cc1 [CLOFIBRIDE] , Hepatotoxicity (acute) read as 0

Notebook: "Nc1cc(N2CCCCC2)nc(N)[n+]1[O-]" , Hepatotoxicity (acute) read as 0

Notebook: O=c1[nH]c(=O)n(C2CCCO2)cc1F (stereo not given) , Hepatotoxicity (acute) read as 0

Notebook: "CC(=O)Oc1ccccc1C(=O)O" , Hepatotoxicity (acute) read as 0

Notebook: "CN(c1nccc(=O)[nH]1)C1CCN(c2nc3ccccc3n2Cc2ccc(F)cc2)CC1" , Hepatotoxicity (acute) read as 0

Notebook: "CC1(C)S[C@@H]2[C@H](NC(=O)[C@H](C(=O)O)c3ccsc3)C(=O)N2[C@H]1C(=O)O" , Hepatotoxicity (acute) read as 0

Notebook: FC(F)OC(F)(F)C(F)Cl (stereo not given) , Hepatotoxicity (acute) read as 0.7

Notebook: CC(C(=O)O)c1ccc(-c2ccccc2)c(F)c1 (stereo not given) , Hepatotoxicity (acute) read as 0

Notebook: "Cn1nnnc1SCC1=C(C(=O)O)N2C(=O)[C@@H](NC(=O)[C@H](O)c3ccccc3)[C@H]2SC1" , Hepatotoxicity (acute) read as 2.4

Notebook: CC(C)(C)NC(=O)[C@H]1CC[C@H]2[C@@H]3CC[C@H]4NC(=O)C=C[C@]4(C)[C@H]3CC[C@]12C [FINASTERIDE] , Hepatotoxicity (acute) read as 0

Notebook: CCCCC(C)(O)C/C=C/[C@H]1[C@H](O)CC(=O)[C@@H]1CCCCCCCO (stereo not given in full) , Hepatotoxicity (acute) read as 0

Notebook: "CCN(CC)CCNc1ccc(CO)c2sc3ccccc3c(=O)c12" , Hepatotoxicity (acute) read as 0

Notebook: OCc1cc(C(O)CNCCCCCCOCCCCc2ccccc2)ccc1O (stereo not given) , Hepatotoxicity (acute) read as 0

Notebook: COCC(=O)Nc1c(I)c(C(=O)NCC(O)CO)c(I)c(C(=O)N(C)CC(O)CO)c1I (stereo not given) [IOPROMIDE] , Hepatotoxicity (acute) read as 0

Notebook: "Cc1cn([C@H]2C[C@H](N=[N+]=[N-])[C@@H](CO)O2)c(=O)[nH]c1=O" , Hepatotoxicity (acute) read as 12.5

Notebook: "CC[C@H]1OC(=O)[C@H](C)[C@@H](O[C@H]2C[C@@](C)(OC)[C@@H](O)[C@H](C)O2)[C@H](C)[C@@H](O[C@@H]2O[C@H](C)C[C@H](N(C)C)[C@H]2O)[C@](C)(O)C[C@@H](C)C(=O)[C@H](C)[C@@H](O)[C@]1(C)O" , Hepatotoxicity (acute) read as 3

Notebook: "CCCN(CCC)C(=O)Cc1c(-c2ccc(Cl)cc2)nc2ccc(Cl)cn12" , Hepatotoxicity (acute) read as 0

Notebook: "C1CC1" , Hepatotoxicity (acute) read as 0

Notebook: "CN1C(=O)CC(=O)N(c2ccccc2)c2cc(Cl)ccc21" , Hepatotoxicity (acute) read as 0

Notebook: CC[C@@H](CO)NC(=O)[C@@H]1C=C2c3cccc4c3c(cn4C)C[C@H]2N(C)C1 [METHYSERGIDE] , Hepatotoxicity (acute) read as 0

Notebook: "Cc1c(C(C)C)c(=O)n(-c2ccccc2)n1C" , Hepatotoxicity (acute) read as 0

Notebook: CCC(c1ccccc1)c1c(O)c2ccccc2oc1=O (stereo not given) , Hepatotoxicity (acute) read as 0

Notebook: "CN(C)CCC=C1c2ccccc2CCc2ccccc21" , Hepatotoxicity (acute) read as 3

Notebook: "CC(=O)N(O)CCCCCNC(=O)CCC(=O)N(O)CCCCCNC(=O)CCC(=O)N(O)CCCCCN" , Hepatotoxicity (acute) read as 0

Notebook: CCCCC(CC)COC(=O)CC(C(=O)OCC(CC)CCCC)S(=O)(=O)O (stereo not given) [DOCUSATE] , Hepatotoxicity (acute) read as 0

Notebook: CN(CCOc1ccc(CC2SC(=O)NC2=O)cc1)c1ccccn1 (stereo not given) , Hepatotoxicity (acute) read as 0

Notebook: "CCOC(=O)[C@H](CCc1ccccc1)N[C@@H](C)C(=O)N1Cc2ccccc2C[C@H]1C(=O)O" , Hepatotoxicity (acute) read as 0

Notebook: "CC(=O)Oc1ccc(C(=C2CCCCC2)c2ccc(OC(C)=O)cc2)cc1" , Hepatotoxicity (acute) read as 1.3

Notebook: "NCC[C@H](O)C(=O)N[C@@H]1C[C@H](N)[C@@H](O[C@H]2O[C@H](CN)CC[C@H]2N)[C@H](O)[C@H]1O[C@H]1O[C@H](CO)[C@@H](O)[C@H](N)[C@H]1O" , Hepatotoxicity (acute) read as 0

Sourced from ChEMBL document CHEMBL3137667
